Test: chemical genetic growth profiling, strain panel (AID 1159580);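 note: tested at 20 µM; growth read once vehicle control cultures reached saturation at 30 °C; 1 = growth at the plate median or of vehicle wells; lower values mean less growth of the strain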
Details: S. cerevisiae deletion strains, growth OD, locus YGL078C, strain dbp3, stronger effect = lower value
The whole screen tested about 5,500 compounds, of which about 2,000 (36%) were called active. Another 18% or so got no clear call; they are omitted. This is one part of the list.
Measured normalized growth, listed per entry for reference.
Just the number.

Check out these entries, answers already filled in.
compound="CN[C@@H]1C(OC2[C@H](O[C@H]3[C@H](O)[C@@H](O)[C@H](N=C(N)N)[C@@H](O)[C@@H]3N=C(N)N)OC(C)[C@]2(O)CO)OC(CO)C(O)C1O (stereo not given in full)" numeric_result=0.97
compound="Cc1cccc(C)c1NC(=O)C1CCCCN1C (stereo not given)" numeric_result=1.01
compound="CCC(=O)OC1[C@@H]2CC3=C4CC(=O)O[C@@H](c5ccoc5)[C@]4(C)CCC3[C@@](C)(C2=O)[C@@H](CC(=O)OC)C1(C)C (stereo not given in full)" numeric_result=1
compound=COc1cc(OC)c2c(=O)cc(-c3ccccc3)oc2c1 numeric_result=0.961
compound=NC1(C(=O)O)CC1 numeric_result=1.02
compound="CNc1ccc(C(=O)CC(O)CCC(C)C2OC(=O)CC(O)CC(=O)CC(O)CC(O)CC(O)CC(O)CC3(O)CC(O)C(C(=O)OC)C(CC(OC4OC(C)C(O)C(N)C4O)/C=C/C=C/C=C/C=C/C=C/C=C/C=C/C2C)O3)cc1 (stereo not given)" numeric_result=0.0564
compound=C1N2CN3CN1CN(C2)C3 numeric_result=0.942
compound="COC1=CC(=O)OC(CCc2ccc(OC)c(OC)c2)C1 (stereo not given)" numeric_result=1.02

# compound C=C[C@@]1(C)CC(=O)[C@@]2(O)[C@](C)(O1)[C@@H](OC(C)=O)[C@@H](O)C1C(C)(C)CC[C@H](O)[C@@]12C (stereo not given in full) ; its normalized growth = 0.985

# compound CC(C)=CC1C(C(=O)OCc2cccc(Oc3ccccc3)c2)C1(C)C (stereo not given) ; its normalized growth = 0.987

# compound CCC(C)C(=O)c1c(O)c(C)c2oc3c(C)c(O)c(C(=O)C(C)CC)c(O)c3c2c1O (stereo not given) ; its normalized growth = 0.987

# compound `NC1(C(=O)O)CCC1` ; its normalized growth = 0.996

# compound C[C@@H]1CC[C@H]2C(C)(C)C3CC12CC[C@@]3(C)O (stereo not given in full) ; its normalized growth = 0.955

# compound `COP(=S)(OC)Oc1ccc([N+](=O)[O-])cc1` ; its normalized growth = 0.985

# compound NCC[C@@H](O)C(=O)N[C@@H]1C[C@H](N)[C@@H](O[C@H]2O[C@H](CN)[C@@H](O)[C@H](O)[C@H]2O)[C@H](O)[C@H]1O[C@H]1O[C@H](CO)[C@@H](O)[C@H](N)C1O (stereo not given in full) ; its normalized growth = 1

# compound `CCCNC(=O)NS(=O)(=O)c1ccc(Cl)cc1` ; its normalized growth = 1.02

# compound COc1ccc2c(c1)OCC(Cc1ccc(OC)c(O)c1)C2=O (stereo not given) ; its normalized growth = 0.92

# compound `NC1(C(=O)O)CCCC1` ; its normalized growth = 0.989

# compound C[C@]12CCC3C(CC[C@H]4C[C@H](O)CC[C@]34C)C1CC[C@@H]2O (stereo not given in full) ; its normalized growth = 0.844

# compound `Cc1ccc(C(=O)c2ccc(CC(=O)O)n2C)cc1` ; its normalized growth = 0.977

# compound COc1ccc2c(c1)OCC(Cc1ccc(OC)c(OC)c1)C2=O (stereo not given) ; its normalized growth = 0.998

# compound CCCCCCCCCCCCCC(=O)OC1C(C)C2(O)C(C=C(CO)CC3(O)C(=O)C(C)=CC32)C2C(C)(C)C12OC(C)=O (stereo not given) ; its normalized growth = 0.99

# compound C[C@]12C=CC(=O)C=C1CCC1C2[C@@H](O)C[C@@]2(C)C1CC[C@]2(O)C(=O)CO (stereo not given in full) ; its normalized growth = 0.998

# compound `COc1ccc(-c2cc(=O)c3c(OC)cc(OC)cc3o2)cc1` ; its normalized growth = 1

----------
Assay: chemical genetic growth profiling, strain panel (AID 1159580);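 note: tested at 20 µM; growth read once vehicle control cultures reached saturation at 30 °C; 1 = growth at the plate median or of vehicle wells; lower values mean less growth of the strain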
Settings: S. cerevisiae deletion strains, growth OD, locus YPR141C, strain kar3, stronger effect = lower value
Hit rate of the full screen: of about 5,500 compounds, about 2,000 (36%) were called active. Not shown: some 18% with an inconclusive outcome. Some of the results follow.
Outcome measure: normalized growth

Check out these entries, answers already filled in.
molecule=COc1ccc2oc3ccccc3c(=O)c2c1 outcome_measure="normalized growth" result="0.882 (active)"
molecule="CC(=O)O[C@@H]1CC2C(C)(C)[C@H](O)CC[C@]2(C)C2CC[C@@]3(C)[C@H](c4ccoc4)OC(=O)C4OC43[C@@]21C (some centres undefined)" outcome_measure="normalized growth" result="0.962 (inactive)"
molecule=CCCn1c(=O)c2[nH]c(C3CCCC3)nc2n(CCC)c1=O outcome_measure="normalized growth" result="0.977 (inactive)"
molecule="CC(=O)O[C@@H]1CC2C(C)(C)C(=O)C3OC3[C@]2(C)C2CC[C@@]3(C)[C@H](c4ccoc4)OC(=O)C4OC43[C@@]21C (some centres undefined)" outcome_measure="normalized growth" result="1.01 (inactive)"
molecule="COc1ccc2c(c1)OCC(Cc1ccc(OC)c(OC(C)=O)c1)C2=O (centres undefined)" outcome_measure="normalized growth" result="1.01 (inactive)"

# molecule COc1ccc2c(c1)OCC(Cc1ccc(OC)c(O)c1)C2=O (centres undefined) ; its normalized growth = 0.971 (inactive)

----------
Assay: chemical genetic growth profiling, strain panel (AID 1159580);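 note: tested at 20 µM; growth read once vehicle control cultures reached saturation at 30 °C; 1 = growth at the plate median or of vehicle wells; lower values mean less growth of the strain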
Conditions: S. cerevisiae deletion strains, growth OD, locus YOR080W, strain dia2, stronger effect = lower value
The whole screen tested about 5,500 compounds, of which about 2,000 (36%) were called active. About 18% were inconclusive and are not listed. The list shows a part of the results.
Outcome measure: normalized growth

compound=CN(C)C(=O)Oc1ccc[n+](C)c1 result="1.03 (inactive)"
compound=Cc1nnc(NS(=O)(=O)c2ccc(N)cc2)s1 result="1 (inactive)"
compound="CC(=O)C1CC[C@H]2C3CC[C@H]4C[C@H](O)CC[C@]4(C)C3CC[C@]12C (stereo partly specified)" result="1.01 (inactive)"
compound="COC(=O)/C(C)=C\\CC12OC(C)(C)C3CC(C=C4C(=O)c5c(OC)c6c(c(CC=C(C)C)c5OC431)OC(C)(CCC=C(C)C)C=C6)C2=O (stereo unspecified)" result="1.02 (inactive)"

# compound O=C(O)CCC1NCC2CC1CN1CCCCC21 (stereo unspecified) ; its normalized growth = 0.964 (inactive)

# compound C[C@]12C=CC(=O)C=C1CCC1C2[C@@H](O)C[C@@]2(C)C1CC[C@]2(O)C(=O)CO (stereo partly specified) ; its normalized growth = 0.997 (inactive)

# compound `CC(O)(P(=O)(O)O)P(=O)(O)O` ; its normalized growth = 0.997 (inactive)

# compound CC(=O)Oc1c2c(c(CC=C(C)C)c3c1C(=O)C1=C[C@@H]4CC5C(C)(C)OC(C/C=C(\C)C(=O)O)(C4=O)[C@@]15O3)OC(C)(CCC=C(C)C)C=C2 (stereo partly specified) ; its normalized growth = 0.994 (inactive)

# compound NC(=O)NC1NC(=O)NC1=O (stereo unspecified) ; its normalized growth = 0.993 (inactive)

# compound CN[C@@H]1C(OC2[C@H](O[C@H]3[C@H](O)[C@@H](O)[C@H](N=C(N)N)[C@@H](O)[C@@H]3N=C(N)N)OC(C)[C@]2(O)CO)OC(CO)C(O)C1O (stereo partly specified) ; its normalized growth = 0.996 (inactive)

# compound COc1ccc(CCC(=O)c2c(O)cc(O[C@@H]3O[C@H](CO)C(O)[C@H](O)C3O[C@@H]3O[C@@H](C)[C@H](O)[C@@H](O)[C@H]3O)cc2O)cc1O (stereo partly specified) ; its normalized growth = 1.03 (inactive)

# compound `COc1ccc(-c2oc3cc(OC)c(OC)c(OC)c3c(=O)c2OC)cc1` ; its normalized growth = 0.991 (inactive)

----------
Assay: chemical genetic growth profiling, strain panel (AID 1159580);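 note: tested at 20 µM; growth read once vehicle control cultures reached saturation at 30 °C; 1 = growth at the plate median or of vehicle wells; lower values mean less growth of the strain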
Settings: S. cerevisiae deletion strains, growth OD, locus YPR167C, strain met16
Out of some 5,500 compounds screened, about 2,000 (36%) were called active. Inconclusive results (about 18%) are left out. Cut-off read from the data, not from the text of the source: active = normalized growth mostly below about 0.91 (no sharp cut-off); inconclusive = no clear call, values can overlap the other calls; inactive = mostly above about 0.92. The list shows a part of the results.
Hi! Could you answer with just one of these? T (active), F (inactive)

# count of solved cases: 3
compound=NC(N)=NCCCCN=C(N)N assigned_label=F
compound=CC(=O)NCCc1c[nH]c2ccc(O)cc12 assigned_label=F
compound="COC1C=CC23c4cc5c(cc4CN(CC2O)[C@@H]3C1)OCO5 (some centres undefined)" assigned_label=F

Field: outcome | Entry: CNc1ccc(C(=O)CC(O)CCC(C)C2OC(=O)CC(O)CC(=O)CC(O)CC(O)CC(O)CC(O)CC3(O)CC(O)C(C(=O)OC)C(CC(OC4OC(C)C(O)C(N)C4O)/C=C/C=C/C=C/C=C/C=C/C=C/C=C/C2C)O3)cc1 (centres undefined)
T

Field: outcome | Entry: C[C@]12C=CC(=O)C=C1CCC1C2[C@@H](O)C[C@@]2(C)C1CC[C@]2(O)C(=O)CO (some centres undefined)
F

Field: outcome | Entry: `Cc1ccc(C(=O)c2ccc(CC(=O)O)n2C)cc1`
F
